# target.desc: Gamma-aminobutyric acid receptor subunit alpha-5 (Homo sapiens, UniProt P31644)
# assay.info: Displacement of flumazenil from alpha5 GABAA receptor (unknown origin)
pKi: −log10 of the molar value.
reported.endpoint: pKi

Some solved cases for reference:
smiles_string=Cc1cc(Cn2c(=O)c3c(C)ncn3c3ccccc32)no1 reported_endpoint=pKi observed_measurement=7.52
smiles_string=CCOC(=O)c1ncn2c1c(=O)n(Cc1cccnc1)c1cccc(Cl)c12 reported_endpoint=pKi observed_measurement=8.70
smiles_string=Cc1ncc(Cn2c(=O)c3cncn3c3ccccc32)cn1 reported_endpoint=pKi observed_measurement=8.77

I: COc1cc(Cl)c2c(c1)n(Cc1cnccc1C)c(=O)c1cncn12
II: CC(C)(C)c1ccc2c(c1)n(Cc1cccnc1)c(=O)c1cncn12
Endpoint returns the identifier whose pKi is numerically larger, either I or II . Your answer should be the label of the entry you select. II
(II: 6.68, I: 6.16)

----------
# target.desc: Gamma-aminobutyric acid receptor subunit alpha-5 (Homo sapiens) (UniProt P31644)
# Sequence (whole entry): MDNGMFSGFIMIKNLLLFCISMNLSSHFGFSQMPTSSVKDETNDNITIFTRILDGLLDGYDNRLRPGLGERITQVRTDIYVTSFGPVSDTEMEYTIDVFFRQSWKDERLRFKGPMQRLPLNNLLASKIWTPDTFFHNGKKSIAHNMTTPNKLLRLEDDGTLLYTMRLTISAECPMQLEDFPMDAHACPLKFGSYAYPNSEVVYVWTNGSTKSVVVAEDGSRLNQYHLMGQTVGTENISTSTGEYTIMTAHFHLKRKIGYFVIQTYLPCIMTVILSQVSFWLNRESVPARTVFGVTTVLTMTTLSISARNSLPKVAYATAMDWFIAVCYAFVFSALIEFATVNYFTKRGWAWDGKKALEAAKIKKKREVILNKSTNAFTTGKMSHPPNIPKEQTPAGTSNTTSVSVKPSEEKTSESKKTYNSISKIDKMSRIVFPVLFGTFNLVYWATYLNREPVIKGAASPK
# assay.info: Displacement of flumazenil from alpha5 GABAA receptor (unknown origin) at 1 uM relative to control
# experimental.parameters: filed as modulator
reported.endpoint: Activity (%)

Some solved cases for reference:
smiles_string=O=c1c2cncn2c2ccccc2n1Cc1ccncc1 target_desc="Gamma-aminobutyric acid receptor subunit alpha-5 (Homo sapiens) (UniProt P31644)" reading_unit=% observed_measurement=62
smiles_string=O=c1c2cncn2c2cc(F)c(F)cc2n1Cc1cccnc1 target_desc="Gamma-aminobutyric acid receptor subunit alpha-5 (Homo sapiens) (UniProt P31644)" reading_unit=% observed_measurement=57
smiles_string=Cc1noc(C)c1Cn1c(=O)c2c(C)ncn2c2ccccc21 target_desc="Gamma-aminobutyric acid receptor subunit alpha-5 (Homo sapiens) (UniProt P31644)" reading_unit=% observed_measurement=65
smiles_string=O=c1c2cncn2c2ccccc2n1Cc1ccccc1 target_desc="Gamma-aminobutyric acid receptor subunit alpha-5 (Homo sapiens) (UniProt P31644)" reading_unit=% observed_measurement=61

P: O=c1c2cncn2c2cc(OC(F)(F)F)ccc2n1Cc1cccnc1
Q: N#Cc1ccc(Cn2c(=O)c3cncn3c3ccccc32)cn1
Endpoint returns the identifier whose Activity is numerically larger, either P or Q . Your answer should be the label of the entry you select. Q

----------
# target.desc: Gamma-aminobutyric acid receptor subunit alpha-5 (Homo sapiens)
# assay.info: Displacement of flumazenil from alpha5 GABAA receptor (unknown origin)
reported.endpoint: Ki (nM)

Some solved cases for reference:
smiles_string=O=c1c2c(CC3CC3)ncn2c2ccccc2n1Cc1ccccn1 target_desc="Gamma-aminobutyric acid receptor subunit alpha-5 (Homo sapiens)" reading_unit=nM observed_measurement=80
smiles_string=O=c1c2cncn2c2cc(Cl)ccc2n1Cc1cccnc1 target_desc="Gamma-aminobutyric acid receptor subunit alpha-5 (Homo sapiens)" reading_unit=nM observed_measurement=840
smiles_string=O=c1c2cncn2c2ccc(Cl)cc2n1Cc1cccnc1 target_desc="Gamma-aminobutyric acid receptor subunit alpha-5 (Homo sapiens)" reading_unit=nM observed_measurement=11
smiles_string=Cn1c(=O)c2cncn2c2ccccc21 target_desc="Gamma-aminobutyric acid receptor subunit alpha-5 (Homo sapiens)" reading_unit=nM observed_measurement=2190
smiles_string=O=c1c2c(Cl)ncn2c2ccccc2n1Cc1ccccn1 target_desc="Gamma-aminobutyric acid receptor subunit alpha-5 (Homo sapiens)" reading_unit=nM observed_measurement=12

a: Cc1cccc2c1n1cncc1c(=O)n2Cc1cccnc1
b: COc1cc(Cl)c2c(c1)n(Cc1cccnc1)c(=O)c1cncn12
Endpoint returns the identifier whose Ki is numerically larger, either a or b . Your answer should be the label of the entry you select. b
(b: 142 nM, a: 86 nM)

----------
# target.desc: Gamma-aminobutyric acid receptor subunit alpha-5 (Homo sapiens, UniProt P31644)
# Sequence (P31644 whole entry): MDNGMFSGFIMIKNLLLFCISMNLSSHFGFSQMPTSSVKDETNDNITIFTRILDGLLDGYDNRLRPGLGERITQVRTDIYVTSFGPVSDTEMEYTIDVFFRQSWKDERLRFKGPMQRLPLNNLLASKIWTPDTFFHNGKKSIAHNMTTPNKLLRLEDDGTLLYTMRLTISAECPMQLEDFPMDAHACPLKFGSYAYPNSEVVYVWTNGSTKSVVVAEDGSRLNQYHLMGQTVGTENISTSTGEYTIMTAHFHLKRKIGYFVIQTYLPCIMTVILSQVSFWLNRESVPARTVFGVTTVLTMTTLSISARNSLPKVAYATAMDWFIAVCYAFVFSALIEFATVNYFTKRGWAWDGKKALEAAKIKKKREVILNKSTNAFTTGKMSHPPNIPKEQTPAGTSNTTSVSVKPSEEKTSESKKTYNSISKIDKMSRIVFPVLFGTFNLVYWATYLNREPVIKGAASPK
# assay.info: Displacement of flumazenil from alpha5 GABAA receptor (unknown origin)
pKi: −log10 of the molar value.
reported.endpoint: pKi

smiles_string=O=c1c2cncn2c2ccccc2n1Cc1cncnc1 reported_endpoint=pKi observed_measurement=7.82
smiles_string=Cc1ccncc1Cn1c(=O)c2cncn2c2ccccc21 reported_endpoint=pKi observed_measurement=7.77
smiles_string=O=c1c2cncn2c2c(Cl)cc(Cl)cc2n1Cc1cccnc1 reported_endpoint=pKi observed_measurement=6.86

I: O=c1c2cncn2c2cccnc2n1Cc1cccnc1
II: Cc1ccc(Cn2c(=O)c3cncn3c3ccccc32)cn1
Endpoint returns the identifier whose pKi is numerically larger, either I or II . Your answer should be the label of the entry you select. II
(II: 7.80, I: 6.91)

a: O=c1c2cncn2c2ccccc2n1Cc1ccccn1
b: O=c1c2cncn2c2ccccc2n1Cc1cnccn1
Endpoint returns the identifier whose pKi is numerically larger, either a or b . Your answer should be the label of the entry you select. b
(b: 7.48, a: 6.88)

I: Cc1cncc(Cn2c(=O)c3cncn3c3ccccc32)c1
II: CCn1c(=O)c2cncn2c2ccccc21
// task: argmin of pKi over [ I , II ] Your answer should be the label of the entry you select. II

I: CN1C(=O)COc2cc(Cn3c(=O)c4cncn4c4ccccc43)ccc21
II: CCc1ncn2c1c(=O)n(Cc1ccccn1)c1ccccc12
Endpoint returns the identifier whose pKi is numerically larger, either I or II . Your answer should be the label of the entry you select. I
(I: 7.32, II: 6.44)

----------
# target.desc: Gamma-aminobutyric acid receptor subunit alpha-5 (Homo sapiens, UniProt P31644)
# assay.info: Displacement of flumazenil from alpha5 GABAA receptor (unknown origin)
reported.endpoint: Ki (nM)

smiles_string=Cn1cc(Cn2c(=O)c3cncn3c3ccccc32)cn1 target_desc="Gamma-aminobutyric acid receptor subunit alpha-5 (Homo sapiens, UniProt P31644)" reported_endpoint=Ki observed_measurement=64

I: Cc1ncccc1Cn1c(=O)c2cncn2c2ccccc21
II: O=c1c2c(CO)ncn2c2ccccc2n1Cc1cccnc1
III: O=c1c2cncn2c2c(Cl)cccc2n1Cc1cccnc1
Please list these compounds in decreasing order of Ki. Provide the labels, sequenced as the question asks. III, I, II
(III: 295 nM, I: 107 nM, II: 52 nM)

----------
# target.desc: Gamma-aminobutyric acid receptor subunit alpha-5 (Homo sapiens, UniProt P31644)
# assay.info: Displacement of flumazenil from alpha5 GABAA receptor (unknown origin)
reported.endpoint: Ki (nM)

Some solved cases for reference:
smiles_string=Cc1ncn2c1c(=O)n(Cc1cccnc1)c1ccccc12 observed_measurement=18
smiles_string=Cc1ncn2c1c(=O)n(Cc1ccccn1)c1ccccc12 observed_measurement=65

P: O=c1c2cncn2c2ccccc2n1Cc1cccnc1
Q: CCOC(=O)c1ncn2c1c(=O)n(Cc1cccnc1)c1ccccc12
// task: argmin of Ki over [ P , Q ] Your answer should be the label of the entry you select. Q
(Q: 0.3 nM, P: 28 nM)

----------
# target.desc: Gamma-aminobutyric acid receptor subunit alpha-5 (Homo sapiens, UniProt P31644)
# Sequence (P31644 whole entry): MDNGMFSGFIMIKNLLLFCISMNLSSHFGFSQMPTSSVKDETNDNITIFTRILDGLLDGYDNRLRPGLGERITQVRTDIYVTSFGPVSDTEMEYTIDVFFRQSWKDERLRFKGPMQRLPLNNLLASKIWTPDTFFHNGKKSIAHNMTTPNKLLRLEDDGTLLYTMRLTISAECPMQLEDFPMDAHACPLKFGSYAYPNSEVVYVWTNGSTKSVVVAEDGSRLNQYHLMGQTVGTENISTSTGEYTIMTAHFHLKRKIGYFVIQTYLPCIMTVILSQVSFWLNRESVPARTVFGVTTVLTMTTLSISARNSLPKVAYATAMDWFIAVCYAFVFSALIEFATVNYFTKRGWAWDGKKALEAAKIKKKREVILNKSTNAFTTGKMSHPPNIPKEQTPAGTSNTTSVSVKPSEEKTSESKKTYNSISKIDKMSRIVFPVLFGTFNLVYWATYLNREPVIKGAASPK
# assay.info: Displacement of flumazenil from alpha5 GABAA receptor (unknown origin)
reported.endpoint: Ki (µM)

Some solved cases for reference:
smiles_string=COc1ccc2c(c1)n(Cc1cccnc1)c(=O)c1cncn12 reported_endpoint=Ki observed_measurement=0.02
smiles_string=Cc1cc(Cc2ncn3c2c(=O)n(Cc2ccccn2)c2ccccc23)no1 reported_endpoint=Ki observed_measurement=0.379
smiles_string=O=c1c2cncn2c2ccc(Br)cc2n1Cc1cccnc1 reported_endpoint=Ki observed_measurement=0.089

a: Cc1cc(Cn2c(=O)c3cncn3c3ccccc32)no1
b: COc1ccc(Cn2c(=O)c3cncn3c3ccccc32)cc1
Endpoint returns the identifier whose Ki is numerically larger, either a or b . Your answer should be the label of the entry you select. b

The origin of these recorded values is ChEMBL document CHEMBL5236645.
